tgt: PAK2 (Homo sapiens, UniProt Q13177)
Sequence (Q13177 whole entry): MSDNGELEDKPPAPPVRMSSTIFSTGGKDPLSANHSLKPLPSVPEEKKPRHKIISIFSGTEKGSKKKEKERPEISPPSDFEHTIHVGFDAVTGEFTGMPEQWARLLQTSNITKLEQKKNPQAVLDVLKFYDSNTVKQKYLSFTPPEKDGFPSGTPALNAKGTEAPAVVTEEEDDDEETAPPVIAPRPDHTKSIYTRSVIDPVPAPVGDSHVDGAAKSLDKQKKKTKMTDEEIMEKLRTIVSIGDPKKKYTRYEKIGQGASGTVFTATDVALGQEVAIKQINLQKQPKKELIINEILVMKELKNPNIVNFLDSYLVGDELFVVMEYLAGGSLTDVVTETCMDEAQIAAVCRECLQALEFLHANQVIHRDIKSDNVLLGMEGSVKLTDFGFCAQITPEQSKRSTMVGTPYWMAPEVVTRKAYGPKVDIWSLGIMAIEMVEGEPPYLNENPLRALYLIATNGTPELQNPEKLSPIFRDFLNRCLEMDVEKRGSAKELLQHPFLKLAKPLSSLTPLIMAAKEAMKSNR
protocol_notes: Competitive binding (test PAK inhibitor affinity) assay, phage-displayed kinase vs immobilized staurosporine
setup_conditions: read-out: Kd
pKd: −log10 of the molar value.
property: pKd

Answer with reported pKd of CCOc1cc2ncc(C#N)c(Nc3ccc(F)c(Cl)c3)c2cc1NC(=O)/C=C/CN(C)C
≤ 5.00

* * *

tgt: UniProt:Q9P286
Sequence (Q9P286 whole entry): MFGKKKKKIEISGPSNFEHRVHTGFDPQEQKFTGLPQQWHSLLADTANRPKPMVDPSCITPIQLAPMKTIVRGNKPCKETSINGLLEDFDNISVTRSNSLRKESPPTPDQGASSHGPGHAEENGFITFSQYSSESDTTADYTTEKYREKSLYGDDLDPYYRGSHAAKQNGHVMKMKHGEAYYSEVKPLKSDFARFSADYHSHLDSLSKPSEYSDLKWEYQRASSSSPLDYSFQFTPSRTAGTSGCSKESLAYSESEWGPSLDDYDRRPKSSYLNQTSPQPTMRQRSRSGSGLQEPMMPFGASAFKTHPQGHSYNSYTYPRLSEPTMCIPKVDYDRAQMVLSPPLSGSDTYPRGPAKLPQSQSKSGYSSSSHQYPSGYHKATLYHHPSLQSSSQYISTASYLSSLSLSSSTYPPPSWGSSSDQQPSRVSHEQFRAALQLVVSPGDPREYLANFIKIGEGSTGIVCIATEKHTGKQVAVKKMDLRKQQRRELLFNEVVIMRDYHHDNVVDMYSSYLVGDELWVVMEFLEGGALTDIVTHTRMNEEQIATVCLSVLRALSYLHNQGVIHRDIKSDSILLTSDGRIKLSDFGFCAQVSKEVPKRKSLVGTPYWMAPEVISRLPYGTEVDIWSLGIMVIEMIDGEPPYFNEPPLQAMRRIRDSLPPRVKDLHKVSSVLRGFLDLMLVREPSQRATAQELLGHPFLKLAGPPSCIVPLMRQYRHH
property: Kd

Report value: Kd, system: UniProt:Q9P286, molecule: CCOc1cc2ncc(C#N)c(Nc3ccc(F)c(Cl)c3)c2cc1NC(=O)/C=C/CN(C)C
≥ 10 µM

* * *

tgt: UniProt:Q13153
protocol_notes: Competitive binding (test PAK inhibitor affinity) assay, phage-displayed kinase vs immobilized staurosporine
setup_conditions: read-out: Kd
property: Kd

Given the molecule CCOc1cc2ncc(C#N)c(Nc3ccc(F)c(Cl)c3)c2cc1NC(=O)/C=C/CN(C)C , write its reported Kd.
< 5 µM

* * *

tgt: PAK2 (Homo sapiens, UniProt Q13177)
protocol_notes: Competitive binding (test PAK inhibitor affinity) assay, phage-displayed kinase vs immobilized staurosporine
pKd: −log10 of the molar value.
property: pKd

Provide measured pKd value, entry: Nc1nc(Nc2ccc(S(N)(=O)=O)cc2)nn1C(=O)c1c(F)cccc1F [JNJ-7706621]
≤ 5.00

* * *

tgt: PAK1 (Homo sapiens)
Sequence (Q13153 whole entry): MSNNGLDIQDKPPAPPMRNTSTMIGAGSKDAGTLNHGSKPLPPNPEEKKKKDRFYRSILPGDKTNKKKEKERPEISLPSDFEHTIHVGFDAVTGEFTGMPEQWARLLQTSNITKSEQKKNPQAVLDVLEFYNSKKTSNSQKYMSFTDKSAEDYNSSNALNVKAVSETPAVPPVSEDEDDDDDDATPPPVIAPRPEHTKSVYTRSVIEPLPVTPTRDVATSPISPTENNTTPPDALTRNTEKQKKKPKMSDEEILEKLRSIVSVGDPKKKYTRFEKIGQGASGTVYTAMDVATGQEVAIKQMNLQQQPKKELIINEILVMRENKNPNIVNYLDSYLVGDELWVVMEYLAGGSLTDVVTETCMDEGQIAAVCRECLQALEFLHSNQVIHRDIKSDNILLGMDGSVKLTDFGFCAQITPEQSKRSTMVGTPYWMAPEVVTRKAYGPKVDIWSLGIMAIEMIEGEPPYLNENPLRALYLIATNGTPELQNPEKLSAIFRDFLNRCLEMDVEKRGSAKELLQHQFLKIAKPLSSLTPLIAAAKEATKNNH
protocol_notes: Competitive binding (test PAK inhibitor affinity) assay, phage-displayed kinase vs immobilized staurosporine
pKd: −log10 of the molar value.
property: pKd

Supply reported pKd belonging to this compound: Nc1nc(Nc2ccc(S(N)(=O)=O)cc2)nn1C(=O)c1c(F)cccc1F [JNJ-7706621]
≤ 5.00

* * *

tgt: PAK4 (Homo sapiens)
Sequence (O96013 whole entry): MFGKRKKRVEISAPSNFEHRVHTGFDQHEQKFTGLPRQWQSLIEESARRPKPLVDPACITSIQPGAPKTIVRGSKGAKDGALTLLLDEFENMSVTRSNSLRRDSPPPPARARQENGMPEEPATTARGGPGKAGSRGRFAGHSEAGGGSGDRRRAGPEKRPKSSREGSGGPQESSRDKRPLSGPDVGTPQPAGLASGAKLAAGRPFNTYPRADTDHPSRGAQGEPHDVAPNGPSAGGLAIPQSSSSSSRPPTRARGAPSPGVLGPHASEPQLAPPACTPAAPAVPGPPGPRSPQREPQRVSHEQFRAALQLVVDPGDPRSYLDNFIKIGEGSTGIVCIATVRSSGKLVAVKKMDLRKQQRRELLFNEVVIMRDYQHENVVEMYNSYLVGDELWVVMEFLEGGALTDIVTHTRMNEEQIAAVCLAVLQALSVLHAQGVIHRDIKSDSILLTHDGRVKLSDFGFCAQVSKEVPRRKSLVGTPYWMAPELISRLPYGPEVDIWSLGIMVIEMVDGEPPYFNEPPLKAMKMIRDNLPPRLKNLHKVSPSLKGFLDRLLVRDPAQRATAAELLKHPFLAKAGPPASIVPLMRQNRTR
pKd: −log10 of the molar value.
property: pKd

Report value only: pKd, PAK4 (Homo sapiens), CCOc1cc2ncc(C#N)c(Nc3ccc(F)c(Cl)c3)c2cc1NC(=O)/C=C/CN(C)C [EKB-569]
≤ 5.00
